Tested on: HCI-001 (organoid from a triple-negative breast cancer xenograft)
TEST_NAME: CTG-3D luminescence at 96 h relative to day-0 seeding control (ratio to day 0); higher = more growth / less cytotoxicity; PDxO 3D drug screen, 96 h, CTG-3D normalised to day-0 seeding control.
CONDITION_NOTES: 0.1 µM; days in culture: 269
PROPERTY: CTG-3D luminescence at 96 h
Would you mind answering with just the numeric figure?

Data request, read-out CTG-3D luminescence at 96 h, for NC1(C(=O)N[C@@H](CCO)c2ccc(Cl)cc2)CCN(c2nc[nH]c3nccc2-3)CC1 1.34

----------
CTG-3D luminescence at 96 h listing for selected molecules.
System: HCI-027 (organoid from a triple-negative breast cancer xenograft)
TEST_NAME: CTG-3D luminescence at 96 h relative to day-0 seeding control (ratio to day 0); higher = more growth / less cytotoxicity; PDxO 3D drug screen, 96 h, CTG-3D normalised to day-0 seeding control.
CONDITION_NOTES: 10 µM; days in culture: 201
Would you mind answering with just the numeric figure?

Here are 5 molecules together with their reported answers.
# COMPOUND, CTG-3D luminescence at 96 h
data = [
    ("C[C@H](NC(=O)CCC(F)(F)F)C(=O)N[C@@H]1C(=O)N(CCO)c2ncccc2-c2ccccc21", 0.258),
    ("CC(=O)O[C@H]1C(=O)[C@@]2(C)[C@H]([C@H](OC(=O)c3ccccc3)[C@]3(O)C[C@H](OC(=O)[C@H](O)[C@@H](NC(=O)c4ccccc4)c4ccccc4)C(C)=C1C3(C)C)[C@]1(OC(C)=O)CO[C@@H]1C[C@@H]2O", 0.563),
    ("CC(C)(C(=O)NCC(F)(F)C(F)(F)F)C(=O)N[C@@H]1C(=O)Nc2ccccc2-c2ccccc21", 0.407),
    ("CCN(c1cc(C#CCN2CCOCC2)cc(C(=O)NCc2c(C)cc(C)[nH]c2=O)c1C)[C@H]1CC[C@H](N(C)CCOC)CC1", 2.64),
    ("O=C(c1ccc(F)c(F)c1Nc1ccc(I)cc1F)N1CC(O)([C@@H]2CCCCN2)C1", 0.365),
]

Data request, read-out CTG-3D luminescence at 96 h, for C=CCn1c(=O)c2cnc(Nc3ccc(N4CCN(C)CC4)cc3)nc2n1-c1cccc(C(C)(C)O)n1 0.0964

Data request, read-out CTG-3D luminescence at 96 h, for C=CC(=O)N1CCC[C@@H](n2nc(-c3ccc(Oc4ccccc4)cc3)c3c(N)ncnc32)C1 1.41
